Numbers sourced from patent US20250353912A1.

tested on: T1, HLA-A*02:01 in complex with the EGFR peptide … conjugated with osimertinib (human, osimertinib covalently bound to Cys)
T1 construct: also called HLA-A*02:01_EGFR-osimertinib; osimertinib-EGFR/HLA-A*02
assay explanation: yeast display
observed property: binding result

{"binder": "EO_Q10 (scFv, V domains shown, yeast-display scFv) VH: EVQLVESGGGLVQPGGSLRLSCAASGFTISSSYIHWVRQAPGKGLEWVAYISPSYGSTSYADSVKGRFTISADTSKNTAYLQMNSLRAEDTAVYYCARELIEMTPDYWGQGTLVTVSS VL: DIQMTQSPSSLSASVGDRVTITCRASQSVSSAVAWYQQKPGKAPKLLIYSASSLYSGVPSRFSGSRSGTDFTLTISSLQPEDFATYYCQQYSGWPITFGQGTKVEIKR", "observed property": "binding result", "result": "binds"}
{"binder": "EO_Q23 (scFv, V domains shown, yeast-display scFv) VH: EVQLVESGGGLVQPGGSLRLSCAASGFTISSSYIHWVRQAPGKGLEWVAYISPSYGSTSYADSVKGRFTISADTSKNTAYLQMNSLRAEDTAVYYCAREYVTMALDYWGQGTLVTVSS VL: DIQMTQSPSSLSASVGDRVTITCRASQSVSSAVAWYQQKPGKAPKLLIYSASSLYSGVPSRFSGSRSGTDFTLTISSLQPEDFATYYCQQYSHWPETFGQGTKVEIKR", "observed property": "binding result", "result": "binds"}
